# System: 786-O
# Test method notes: Euclidean distance of Cell Painting phenotypic profile (signed KS, 77 features) to DMSO centroid (dimensionless distance); 5 or 10 uM (library dependent); higher = stronger phenotypic change vs DMSO (phenoactivity)
# Test context: 48 h
Counter-ions that a name gives are not always drawn.
# Euclidean distance >= 1 gives criterion met, anything below gives criterion not met

* COc1ccc(Cc2cnc(N)nc2N)cc1OC | criterion not met
* CCN(CC)CCOC(=O)C1(C2CCCCC2)CCCCC1 [Dicyclomine HCl] | criterion met
* Cn1cc(-c2ccc(S(=O)(=O)n3ccc(/C=C/C(=O)Nc4ccccc4N)c3)cc2)cn1 | criterion met
* CN1CCC(=C2c3ccccc3CCn3c(C=O)cnc32)CC1 | criterion met
* CCCCCCCN(CC)CCCC(O)c1ccc(NS(C)(=O)=O)cc1 (stereo not given) [Ibutilide Fumarate] | criterion met
* C[C@](N)(Cc1ccc(O)c(O)c1)C(=O)O | criterion met
* Cc1onc(-c2ccccc2)c1-c1ccc(S(N)(=O)=O)cc1 | criterion met
* CC(C(=O)O)c1ccc2c(c1)CC(=O)c1ccccc1S2 (stereo not given) | criterion met
* Nc1ncnc2n[nH]c(Nc3ccc(F)cc3)c12 | criterion not met
* CC1CCc2cc(F)cc3c(=O)c(C(=O)O)cn1c23 (stereo not given) | criterion met

====

The entries below come with measured Euclidean distance values attached.
# Tested on: DU145
# Test method notes: Euclidean distance of Cell Painting phenotypic profile (signed KS, 77 features) to DMSO centroid (dimensionless distance); 5 or 10 uM (library dependent); higher = stronger phenotypic change vs DMSO (phenoactivity)
# Test context: 48 h
Reported property: Euclidean distance

- Cc1ccc(Cl)c(Nc2ccccc2C(=O)O)c1Cl [Meclofenamate Sodium]: 1.66
- Cc1cccc(-c2[nH]ncc2-c2ccc3ncccc3n2)n1: 0.91
- Nc1cccc2c1C(=O)N(C1CCC(=O)NC1=O)C2=O (centres undefined) [Pomalidomide]: 0.704
- CC1(C)CNc2cc(NC(=O)c3cccnc3NCc3ccncc3)ccc21 [Motesanib Diphosphate (AMG-706)]: 1.48
- O=C(O)CCC(=O)OC[C@@H](NC(=O)C(Cl)Cl)[C@H](O)c1ccc([N+](=O)[O-])cc1 [Chloramphenicol sodium succinate]: 0.814
- O=C(NOCC1CC1)c1ccc(F)c(F)c1Nc1ccc(I)cc1Cl: 2.78
- CC(C)=CCC/C(C)=C/CC/C(C)=C/CCC(=O)OC/C=C(\C)CCC=C(C)C [Gefarnate]: 0.637
- COc1ccc(C2OCC3C(c4cc(OC)c(OC)c(OC)c4)OCC23)cc1OC (centres undefined): 1.05
- OC[C@@H](O)CN1CCN(c2ccccc2)CC1: 0.896

====

# Euclidean distance listing for each entry below
# System: DU145
# Test method notes: Euclidean distance of Cell Painting phenotypic profile (signed KS, 77 features) to DMSO centroid (dimensionless distance); 5 or 10 uM (library dependent); higher = stronger phenotypic change vs DMSO (phenoactivity)
# Test context: 48 h
Reported property: Euclidean distance

- CNC(=O)c1cc(Oc2ccc(NC(=O)Nc3ccc(Cl)c(C(F)(F)F)c3)cc2)ccn1 [Sorafenib]: 1.74
- COc1ccc2c(Oc3ccc(NC(=O)c4c(C)n(CC(C)(C)O)n(-c5ccccc5)c4=O)nc3)ccnc2c1: 1.02
- O=C1CCc2ccc(OCCCCN3CCN(c4cccc(Cl)c4Cl)CC3)cc2N1 [Aripiprazole]: 0.573
- COCCOC(=O)C1=C(C)NC(C)=C(C(=O)OC(C)C)C1c1cccc([N+](=O)[O-])c1 (stereo unspecified) [Nimodipine]: 1.08
- COc1cc(CCc2cc(NC(=O)c3ccc(N4CC(C)NC(C)C4)cc3)n[nH]2)cc(OC)c1 (stereo unspecified): 1.5
- NC(=NCCCCCCN=C(N)N=C(N)Nc1ccc(Cl)cc1)N=C(N)Nc1ccc(Cl)cc1 [Chlorhexidine?2HCl]: 2.18
- CCOc1nc2cccc(C(=O)OC(C)OC(=O)OC3CCCCC3)c2n1Cc1ccc(-c2ccccc2-c2nn[nH]n2)cc1 (stereo unspecified) [Candesartan Cilexetil]: 1.35
- C=C1CCN([C@H](C)[C@](O)(Cn2cncn2)c2ccc(F)cc2F)CC1 [Efinaconazole]: 0.723
- N[C@@H](CC(=O)N1CCn2c(nnc2C(F)(F)F)C1)Cc1cc(F)c(F)cc1F [Sitagliptin phosphate monohydrate]: 1.11
- COc1ccnc(C[S+]([O-])c2nc3cc(OC(F)F)ccc3[nH]2)c1OC (stereo unspecified) [Pantoprazole]: 0.784
- CC1Oc2cc(cnc2N)-c2c(nn(C)c2C#N)CN(C)C(=O)c2ccc(F)cc21 (stereo unspecified): 1.34
- CCS(=O)(=O)CCn1c([N+](=O)[O-])cnc1C [Tinidazole]: 0.693
- C[C@H](CCC(=O)O)[C@H]1CC[C@H]2[C@@H]3[C@H](O)C[C@@H]4C[C@H](O)CC[C@]4(C)[C@H]3C[C@H](O)[C@]12C [Cholic acid]: 0.953
- C=C1/C(=C\C=C2/CCC[C@]3(C)[C@@H]([C@H](C)CCCC(C)(C)O)CC[C@@H]23)C[C@@H](O)C[C@@H]1O [Calcitriol]: 1.24
- CCOC(=O)C1=C[C@@H](OC(CC)CC)[C@H](NC(C)=O)[C@@H](N)C1 [Oseltamivir phosphate]: 0.967
- Cc1cc(=O)oc2cc(O)ccc12 [4-Methylumbelliferone (4-MU)]: 0.979

====

# Tested on: HEPG2
# Test method notes: Euclidean distance of Cell Painting phenotypic profile (signed KS, 77 features) to DMSO centroid (dimensionless distance); 5 or 10 uM (library dependent); higher = stronger phenotypic change vs DMSO (phenoactivity)
# Test context: 48 h
Reported property: Euclidean distance

• CCOC(=O)C1=C[C@@H](OC(CC)CC)[C@H](NC(C)=O)[C@@H](N)C1 [Oseltamivir Phosphate] = 0.386
• NC1(Cc2ccc(Cl)cc2)CCN(c2ncnc3[nH]ccc23)CC1 = 1.17
• CCC/N=C1\S/C(=C\c2ccc(OC[C@H](O)CO)c(Cl)c2)C(=O)N1c1ccccc1C [Ponesimod] = 1.32
• COc1cccc(Nc2c(C(N)=O)cnc3c(C)cc(S(=O)(=O)c4cccc(C(=O)N(C)C)c4)cc23)c1 = 1.19

====

# System: DU145
# Test method notes: Euclidean distance of Cell Painting phenotypic profile (signed KS, 77 features) to DMSO centroid (dimensionless distance); 5 or 10 uM (library dependent); higher = stronger phenotypic change vs DMSO (phenoactivity)
# Test context: 48 h
Reported property: Euclidean distance

* Cc1[nH]c(/C=C2\C(=O)Nc3ccc(S(=O)(=O)N(C)c4cccc(Cl)c4)cc32)c(C)c1C(=O)N1CCN(C)CC1 | 2.03
* C[N+](C)(C)CCO.[Cl-] [Choline Chloride] | 0.73
* COc1ccc(C2CC(=O)c3c(O)cc(OC4OC(COC5OC(C)C(O)C(O)C5O)C(O)C(O)C4O)cc3O2)cc1OC (configuration not stated) | 1.16
* C=CC(=O)Nc1cc(Nc2nccc(-n3cc(CN(C)C)c(-c4ccccc4)n3)n2)c(OC)cc1N1CCOCC1 | 1.79
* N[C@@H](Cc1cc(I)c(Oc2ccc(O)c(I)c2)c(I)c1)C(=O)O [Liothyronine Sodium] | 0.838
* CCCN1C[C@H](C)[C@@H](O)[C@](C)(O)[C@@H](CC)OC(=O)[C@H](C)[C@@H](O[C@H]2C[C@@](C)(OC)[C@@H](O)[C@H](C)O2)[C@H](C)[C@@H](O[C@@H]2O[C@H](C)C[C@H](N(C)C)[C@H]2O)[C@](C)(O)C[C@H]1C | 1.98
* COc1ccc(CCC(=O)Nc2nc3ccc(Cl)cc3s2)cc1OC | 1.19

====

Quick reference for Euclidean distance among some molecules
# System: DU145
# Test method notes: Euclidean distance of Cell Painting phenotypic profile (signed KS, 77 features) to DMSO centroid (dimensionless distance); 5 or 10 uM (library dependent); higher = stronger phenotypic change vs DMSO (phenoactivity)
# Test context: 48 h
Reported property: Euclidean distance

• C#C[C@]1(O)CC[C@H]2[C@@H]3CCc4cc(OC5CCCC5)ccc4[C@H]3CC[C@@]21C [Quinestrol] = 1.69
• Cc1cn([C@H]2C[C@H](N=[N+]=[N-])[C@@H](CO)O2)c(=O)[nH]c1=O [Zidovudine] = 1.19
• CC(=O)N1C[C@H](O)C[C@H]1C(=O)O [Oxaceprol] = 0.785
• CC(=O)OCC1=C(C(=O)O)N2C(=O)[C@@H](NC(=O)CSC(=NC(C)C)NC(C)C)[C@H]2SC1 [Cefathiamidine] = 1.41

====

# Tested on: A549
# Test method notes: Euclidean distance of Cell Painting phenotypic profile (signed KS, 77 features) to DMSO centroid (dimensionless distance); 5 or 10 uM (library dependent); higher = stronger phenotypic change vs DMSO (phenoactivity)
# Test context: 48 h
Structures can show the parent of a compound that is named as a salt.
Note to self: values exactly at 0.8 are rule met. So Euclidean distance at or above 0.8 is rule met, below is rule not met.

• NCc1ccc(S(N)(=O)=O)cc1 [Mafenide hydrochloride] = rule met
• NC1=NCC2c3ccccc3Cc3ccccc3N12 (centres undefined) [Epinastine HCl] = rule met
• O=[N+]([O-])c1cncn1CCN1CCOCC1 [Nimorazole] = rule not met
• Cc1noc(NS(=O)(=O)c2ccc(N)cc2)c1C [Sulfisoxazole] = rule met
• COc1cc(Nc2ncc(F)c(Nc3ccc4c(n3)NC(=O)C(C)(C)O4)n2)cc(OC)c1OC = rule met
• CO/N=C(\C(=O)N[C@@H]1C(=O)N2C(C(=O)O)=C(COC(N)=O)CS[C@H]12)c1ccco1 [Cefuroxime sodium] = rule not met
• O=C(CCc1ccc(O)cc1)c1c(O)cc(O)cc1O [Phloretin] = rule not met
• Cc1ccc(/C(=C\CN2CCCC2)c2cccc(/C=C/C(=O)O)n2)cc1 [Acrivastine] = rule met
• CC(=O)O[C@@H]1CC[C@@]2(C)[C@@H](CC[C@]3(C)[C@@H]2C(=O)C=C2[C@@H]4[C@@H](C)[C@H](C)CC[C@]4(C)CC[C@]23C)[C@@]1(C)C(=O)O = rule met

These entries and their values trace back to the supplement of paper PMC10127200.
